Test: physchem
Conditions: 25 °C, oil or lipid, thermodynamic from solid
Where a name gives a salt, the structure may show the parent alone.
experimental_readout: solubility at 24 h

Briefly, solubility at 24 h measured for CC12CC3CC(C)(C1)CC(N)(C3)C2 [hydrochloride, Memantine hydrochloride, reference compound] : < 5000 µg/mL
